# EXPERIMENT_DESCRIPTION: Determination of peptide hydrophobicity with RP-HPLC (adjusted retention time)
# Type: physicochemical
# DETAILS: Table 3; adjusted retention time as hydrophobicity; RP-HPLC C18, linear 10–55% acetonitrile over 60 min, 0.1% TFA, 25.0 °C, UV 214 nm, triplicate
Residues, ends and D or L forms follow the SMILES beside them.

- COMPOUND: "CCCCCCCCCCCC(=O)N[C@@H](CCSC)C(=O)N[C@@H](CCCNC(=N)N)C(=O)N[C@@H](CCCNC(=N)N)C(N)=O [compound 49, C12-MRR-NH2] (HELM PEPTIDE1{[CCCCCCCCCCCC(=O)[*:2]].M.R.R.[am]}$$$$V2.0)"
  tR’, min: 37.95
- COMPOUND: "CCCCCCCCCCCC(=O)NCC(=O)N[C@@H](CCCNC(=N)N)C(=O)N[C@@H](CCCNC(=N)N)C(N)=O"
  tR’, min: 33.20
- COMPOUND: "CCCCCCCCCCCC(=O)N[C@H](C(=O)N[C@@H](CCCNC(=N)N)C(=O)N[C@@H](CCCNC(=N)N)C(N)=O)C(C)C [compound 93, C12-VRR-NH2] (HELM PEPTIDE1{[CCCCCCCCCCCC(=O)[*:2]].V.R.R.[am]}$$$$V2.0)"
  tR’, min: 37.17
- COMPOUND: "CCCCCCCCCCCCCC(=O)N[C@@H](CCSC)C(=O)N[C@@H](CCCNC(=N)N)C(=O)N[C@@H](CCCNC(=N)N)C(N)=O [compound 50, C14-MRR-NH2] (HELM PEPTIDE1{[CCCCCCCCCCCCCC(=O)[*:2]].M.R.R.[am]}$$$$V2.0)"
  tR’, min: 44.69

* * *

# System: A. baumannii ATCC BAA-1605
# Assay type: cell-based, Acinetobacter baumannii
# DETAILS: ATCC BAA-1605, 18 h
Residues, ends and D or L forms follow the SMILES beside them.
Quick reference for MIC A among some molecules

- MOLECULE: "CCCCCCCCCCCCCC(=O)N[C@@H](CO)C(=O)N[C@@H](CCCNC(=N)N)C(=O)N[C@@H](CCCNC(=N)N)C(N)=O [compound 86, C14-SRR-NH2] (HELM PEPTIDE1{[CCCCCCCCCCCCCC(=O)[*:2]].S.R.R.[am]}$$$$V2.0)"
  MIC A, µg/mL: 32
- MOLECULE: "CCCCCCCCCCCCCC(=O)N[C@@H](CCCC)C(=O)N[C@@H](CCCNC(=N)N)C(=O)N[C@@H](CCCNC(=N)N)C(N)=O [compound 66, C14-NleRR-NH2] (HELM PEPTIDE1{[CCCCCCCCCCCCCC(=O)[*:2]].[Nle].R.R.[am]}$$$$V2.0)"
  MIC A, µg/mL: 64

* * *

# System: human red blood cells (hRBCs)
# Format: cell-based
# DETAILS: red cells of human, 1 h
Residues, ends and D or L forms follow the SMILES beside them.
ENDPOINT_NAME: HC50

- MOLECULE: "CCCCCCCCCCCC(=O)N[C@@H](CCC)C(=O)N[C@@H](CCCNC(=N)N)C(=O)N[C@@H](CCCNC(=N)N)C(N)=O [compound 69, C12-NvaRR-NH2] (HELM PEPTIDE1{[CCCCCCCCCCCC(=O)[*:2]].[Nva].R.R.[am]}$$$$V2.0)"
  ASSAY_TARGET: "human red blood cells (hRBCs)"
  VALUE_MEASURED: "207.62 (±5.27) µg/mL"
- MOLECULE: "CCCCCCCCCCCC(=O)NCC(=O)N[C@@H](CCCNC(=N)N)C(=O)N[C@@H](CCCNC(=N)N)C(N)=O"
  ASSAY_TARGET: "human red blood cells (hRBCs)"
  VALUE_MEASURED: ">256 µg/mL"
- MOLECULE: "CCCCCCCCCCCCCC(=O)N[C@@H](CC(C)C)C(=O)N[C@@H](CCCNC(=N)N)C(=O)N[C@@H](CCCNC(=N)N)C(N)=O [compound 46, C14-LRR-NH2] (HELM PEPTIDE1{[CCCCCCCCCCCCCC(=O)[*:2]].L.R.R.[am]}$$$$V2.0)"
  ASSAY_TARGET: "human red blood cells (hRBCs)"
  VALUE_MEASURED: "29.50 (±1.05) µg/mL"
- MOLECULE: "CCCCCCCCCCCCCC(=O)NCC(=O)N[C@@H](CCCNC(=N)N)C(=O)N[C@@H](CCCNC(=N)N)C(N)=O"
  ASSAY_TARGET: "human red blood cells (hRBCs)"
  VALUE_MEASURED: "31.94 (±1.99) µg/mL"
- MOLECULE: "CCCCCCCCCCCCCC(=O)N[C@@H](Cc1c[nH]cn1)C(=O)N[C@@H](CCCNC(=N)N)C(=O)N[C@@H](CCCNC(=N)N)C(N)=O [compound 34, C14-HRR-NH2] (HELM PEPTIDE1{[CCCCCCCCCCCCCC(=O)[*:2]].H.R.R.[am]}$$$$V2.0)"
  ASSAY_TARGET: "human red blood cells (hRBCs)"
  VALUE_MEASURED: "50.31 (±0.52) µg/mL"

* * *

compounds and their reported tR’
# EXPERIMENT_DESCRIPTION: Determination of peptide hydrophobicity with RP-HPLC (adjusted retention time)
# Type: physicochemical
# DETAILS: Table 3; adjusted retention time as hydrophobicity; RP-HPLC C18, linear 10–55% acetonitrile over 60 min, 0.1% TFA, 25.0 °C, UV 214 nm, triplicate
# Method: To determine peptide hydrophobicity, the Waters Alliance e2695 system with a Waters 2998 PDA Detector (software-Empower®3) was used. All analyses were carried out on a Phenomenex Luna C18(2) column (3.0 × 100 mm, 5 µm particle size, 100 Å pore size). […] Each peptide sample was analyzed in triplicate.
Residues, ends and D or L forms follow the SMILES beside them.

- COMPOUND: "CCCCCCCCCCCCCCCC(=O)N[C@@H](CCCNC(=N)N)C(=O)N[C@@H](CCCNC(=N)N)C(N)=O [compound 5, C16-RR-NH2, reference compound] (HELM PEPTIDE1{[CCCCCCCCCCCCCCCC(=O)[*:2]].R.R.[am]}$$$$V2.0)"
  tR’ [min]: 46.51
- COMPOUND: "CCCCCCCCCCCC(=O)N[C@@H](CCCNC(=N)N)C(=O)N[C@@H](CCCNC(=N)N)C(=O)N[C@@H](CCCNC(=N)N)C(N)=O [compound 81, C12-RRR-NH2] (HELM PEPTIDE1{[CCCCCCCCCCCC(=O)[*:2]].R.R.R.[am]}$$$$V2.0)"
  tR’ [min]: 30.00
- COMPOUND: "CCCCCCCCCCCCCC(=O)N[C@@H](CCC(=O)O)C(=O)N[C@@H](CCCNC(=N)N)C(=O)N[C@@H](CCCNC(=N)N)C(N)=O [compound 22, C14-ERR-NH2] (HELM PEPTIDE1{[CCCCCCCCCCCCCC(=O)[*:2]].E.R.R.[am]}$$$$V2.0)"
  tR’ [min]: 40.17
- COMPOUND: "CCCCCCCCCCCCCC(=O)N[C@@H](CC(=O)O)C(=O)N[C@@H](CCCNC(=N)N)C(=O)N[C@@H](CCCNC(=N)N)C(N)=O [compound 18, C14-DRR-NH2] (HELM PEPTIDE1{[CCCCCCCCCCCCCC(=O)[*:2]].D.R.R.[am]}$$$$V2.0)"
  tR’ [min]: 40.25

* * *

# EXPERIMENT_DESCRIPTION: Determination of peptide hydrophobicity with RP-HPLC (adjusted retention time)
# Format: physicochemical
# DETAILS: Table 3; adjusted retention time as hydrophobicity; RP-HPLC C18, linear 10–55% acetonitrile over 60 min, 0.1% TFA, 25.0 °C, UV 214 nm, triplicate
Residues, ends and D or L forms follow the SMILES beside them.

- MOLECULE: "CCCCCCCCCC(=O)N[C@@H](Cc1ccccc1)C(=O)N[C@@H](CCCNC(=N)N)C(=O)N[C@@H](CCCNC(=N)N)C(N)=O [compound 24, C10-FRR-NH2] (HELM PEPTIDE1{[CCCCCCCCCC(=O)[*:2]].F.R.R.[am]}$$$$V2.0)"
  tR’: "34.68 min"
- MOLECULE: "CCCCCCCCCCCCCC(=O)N[C@@H](CCC)C(=O)N[C@@H](CCCNC(=N)N)C(=O)N[C@@H](CCCNC(=N)N)C(N)=O [compound 70, C14-NvaRR-NH2] (HELM PEPTIDE1{[CCCCCCCCCCCCCC(=O)[*:2]].[Nva].R.R.[am]}$$$$V2.0)"
  tR’: "44.53 min"

* * *

# EXPERIMENT_DESCRIPTION: Determination of peptide hydrophobicity with RP-HPLC (adjusted retention time)
# Assay type: physicochemical
# DETAILS: Table 3; adjusted retention time as hydrophobicity; RP-HPLC C18, linear 10–55% acetonitrile over 60 min, 0.1% TFA, 25.0 °C, UV 214 nm, triplicate
Residues, ends and D or L forms follow the SMILES beside them.

- COMPOUND: "CCCCCCCC(=O)N[C@@H](CCCNC(=N)N)C(=O)N[C@@H](CCCNC(=N)N)C(N)=O [compound 1, C8-RR-NH2, reference compound] (HELM PEPTIDE1{[CCCCCCCC(=O)[*:2]].R.R.[am]}$$$$V2.0)"
  tR’ / min: 14.46
- COMPOUND: "CCCCCCCCCC(=O)N[C@@H](CCCNC(=N)N)C(=O)N[C@@H](CCCNC(=N)N)C(N)=O [compound 2, C10-RR-NH2, reference compound] (HELM PEPTIDE1{[CCCCCCCCCC(=O)[*:2]].R.R.[am]}$$$$V2.0)"
  tR’ / min: 24.30
- COMPOUND: "CCCCCCCCCCCCCC(=O)N[C@@H](CO)C(=O)N[C@@H](CCCNC(=N)N)C(=O)N[C@@H](CCCNC(=N)N)C(N)=O [compound 86, C14-SRR-NH2] (HELM PEPTIDE1{[CCCCCCCCCCCCCC(=O)[*:2]].S.R.R.[am]}$$$$V2.0)"
  tR’ / min: 39.72
- COMPOUND: "CCCCCCCCCCCC(=O)N[C@@H](CCCNC(=N)N)C(=O)N[C@@H](CCCNC(=N)N)C(N)=O [compound 3, C12-RR-NH2, reference compound] (HELM PEPTIDE1{[CCCCCCCCCCCC(=O)[*:2]].R.R.[am]}$$$$V2.0)"
  tR’ / min: 32.58
